Numbers sourced from ChEMBL document CHEMBL4834403.

These records show IC50 for Protein deacetylase HDAC6 (Homo sapiens, UniProt Q9UBN7).

Worked examples, 2 compounds total:
COc1cc2c(NCC3CCN(C)CC3)cc(-c3ccc(C)o3)nc2cc1OCCCN1CCCC1; > 10 µM
COc1cc2nc(-c3ccc(C)o3)cc(N[C@H]3CC[C@H](C(=O)NO)CC3)c2cc1OC; > 20 µM

Let us move to another entry and its IC50.
Can you look up the measured IC50 of "COc1cc2c(NC3CCN(C)CC3)cc(-c3ccc(C)o3)nc2cc1OCCCN1CCCC1" for me? > 10 µM

###

Let's go through some pIC50 measurements on Histone deacetylase 2 (Homo sapiens, UniProt Q92769) together.
Sequence (Q92769 whole entry): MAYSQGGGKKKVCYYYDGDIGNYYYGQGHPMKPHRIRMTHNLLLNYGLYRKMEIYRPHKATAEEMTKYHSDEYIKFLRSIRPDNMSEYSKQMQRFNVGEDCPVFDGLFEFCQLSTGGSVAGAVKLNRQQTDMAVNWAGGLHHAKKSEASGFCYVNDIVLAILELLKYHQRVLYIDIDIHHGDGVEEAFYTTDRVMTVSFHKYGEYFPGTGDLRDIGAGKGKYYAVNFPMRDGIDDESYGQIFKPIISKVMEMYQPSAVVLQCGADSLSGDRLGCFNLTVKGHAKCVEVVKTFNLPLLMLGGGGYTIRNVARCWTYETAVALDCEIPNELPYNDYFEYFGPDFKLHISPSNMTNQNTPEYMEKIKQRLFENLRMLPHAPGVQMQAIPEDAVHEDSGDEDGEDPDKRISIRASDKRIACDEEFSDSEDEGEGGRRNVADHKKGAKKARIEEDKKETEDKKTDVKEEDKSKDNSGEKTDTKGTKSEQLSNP
One number for each entry, as −log10 of the molar value.

Solved entries (count: 2):
COc1cc2c(NCC3CCC(C(=O)NO)CC3)cc(-c3ccc(C)o3)nc2cc1OCCCN1CCCC1 (stereo not drawn); 6.80
COc1cc2nc(-c3ccc(C)o3)cc(NCc3ccc(C(=O)NO)cc3)c2cc1OC; 7.04

With those in mind, consider the next compound.
What does the record list as pIC50 for COc1cc2nc(-c3ccc(C)o3)cc(NCC3C4CCC3CN(c3ncc(C(=O)NO)cn3)C4)c2cc1OC (stereo not drawn) ? 6.90

###

Hi there, I'd appreciate the recorded GI50 for every entry that follows.
Test system: MM1.S
experiment notes: Antiproliferative activity against human MM1.S cells assessed as inhibition of cell proliferation measured up to 72 hrs by CellTiter96 Aqueous one reagent based assay
Assay type: functional
test context: time hrs <=72, read-out: pGI50 (converted)

Here is how some molecules turned out for GI50.
COc1cc2c(NC3CCN(c4ccc(C(=O)NO)cc4)CC3)cc(-c3ccc(C)o3)nc2cc1OCCCN1CCCC1; > 10 µM
COc1cc2c(NC3CCN(c4ncc(C(=O)NO)cn4)CC3)cc(C)nc2cc1OCCCN1CCCC1; > 10 µM

Now look at this entry.
Record "COc1cc2c(NCC3CCN(c4ncc(C(=O)NO)cn4)CC3)cc(-c3ccc(C)o3)nc2cc1OCC1CCNCC1" : what is its GI50 with MM1.S? > 10 µM
